Let's look at some binders and their measured IC50.
MEASUREMENT_TARGET: SARS-CoV-2 Spike-Fc, Beta (B1.351/South Africa) variant (SARS-CoV-2), P0DTC2
RECORDED_METRIC: IC50 (nM)

BINDER: EQAKTFLDKFNHEAEDLFLWRALWRLWRSLWRLLWK (modifications not checked) [Seq33 (LNCOV-18)]
RECORDED_METRIC: IC50
OBSERVED_RESULT: 28.8

BINDER: KTFLDKFNHEAEDLFPGPKWSAFLKEQSTLAQMYG (modifications not checked) [Seq28 (LNCOV-20)]
RECORDED_METRIC: IC50
OBSERVED_RESULT: 31.5

Each recorded value in this set is attributed to patent US20230304010A1.
